- Test system: SF268
- Condition: exposure time: 72 h
Reported endpoint: IC50 (absolute, viability)
Report as: number unit

Worked cases, IC50 (absolute, viability) given:
[
  {
    "Molecule": "Nc1ccn([C@@H]2O[C@H](CO)[C@@H](O)C2(F)F)c(=O)n1",
    "Experimental target": "SF268",
    "Obs value": "210 nM"
  },
  {
    "Molecule": "C=CCc1cccc(/C=N/NC(=O)CN2CCN(Cc3ccccc3)CC2)c1O",
    "Experimental target": "SF268",
    "Obs value": "2970 nM"
  },
  {
    "Molecule": "CC(=O)O[C@@]12CO[C@@H]1C[C@H](O)[C@@]1(C)C(=O)[C@H](O)C3=C(C)[C@@H](OC(=O)[C@H](O)[C@@H](NC(=O)OC(C)(C)C)c4ccccc4)C[C@@](O)([C@@H](OC(=O)c4ccccc4)[C@H]21)C3(C)C",
    "Experimental target": "SF268",
    "Obs value": "2.31 nM"
  },
  {
    "Molecule": "N#CC(c1ccnc(NCCc2cccnc2)n1)c1nc2ccccc2s1 (centres undefined)",
    "Experimental target": "SF268",
    "Obs value": "7050 nM"
  },
  {
    "Molecule": "CCC(=O)N1CCN(c2ccc(-n3c(=O)ccc4cnc5ccc(-c6cnc7ccccc7c6)cc5c43)cc2C(F)(F)F)CC1",
    "Experimental target": "SF268",
    "Obs value": "74.6 nM"
  },
  {
    "Molecule": "CCOc1nc(NC(=O)Cc2cc(OC)ccc2OC)cc(N)c1C#N",
    "Experimental target": "SF268",
    "Obs value": "21100 nM"
  }
]

*Q* For the molecule C[C@@H](Oc1cc(-c2cnn(C3CCNCC3)c2)cnc1N)c1c(Cl)ccc(F)c1Cl , report IC50 (absolute, viability).
*A* 29.6 nM

*Q* Quote IC50 (absolute, viability) reported for Cc1cc([C@@H](C)Nc2ccccc2C(=O)O)c2nc(N3CCOCC3)cc(=O)n2c1 please.
*A* 13900 nM

*Q* Tell me IC50 (absolute, viability) reported for C#Cc1cccc(Nc2ncnc3cc(OCCOC)c(OCCOC)cc23)c1
*A* 38100 nM

---

# key: entry, value: Bliss synergy score
- Tested on: SF539
- Assay text: Bliss synergy score (Combenefit); higher = more synergy; extreme values may be limits of the assay
- Condition: exposure time: 72 h
Reply with just the number.

[
  {
    "Compound": "C=CCc1cccc(/C=N/NC(=O)CN2CCN(Cc3ccccc3)CC2)c1O [PAC-1] + Cc1cc([C@@H](C)Nc2ccccc2C(=O)O)c2nc(N3CCOCC3)cc(=O)n2c1 [AZD6482]",
    "Reported endpoint": "Bliss synergy score",
    "Obs value": 0
  }
]

*Q* Please give measured Bliss synergy score of the following entry: CC(=O)O[C@@]12CO[C@@H]1C[C@H](O)[C@@]1(C)C(=O)[C@H](O)C3=C(C)[C@@H](OC(=O)[C@H](O)[C@@H](NC(=O)OC(C)(C)C)c4ccccc4)C[C@@](O)([C@@H](OC(=O)c4ccccc4)[C@H]21)C3(C)C [Docetaxel] + CCCCCCCCCCCC1=C(O)C(=O)C=C(O)C1=O [Embelin]
*A* 0.24

*Q* Dear colleague, please send me the reported Bliss synergy score for CC(=O)O[C@@]12CO[C@@H]1C[C@H](O)[C@@]1(C)C(=O)[C@H](O)C3=C(C)[C@@H](OC(=O)[C@H](O)[C@@H](NC(=O)OC(C)(C)C)c4ccccc4)C[C@@](O)([C@@H](OC(=O)c4ccccc4)[C@H]21)C3(C)C [Docetaxel] + C#Cc1cccc(Nc2ncnc3cc(OCCOC)c(OCCOC)cc23)c1 [Erlotinib] when you can.
*A* 0

*Q* Kindly indicate its recorded Bliss synergy score. Item: Cc1cc([C@@H](C)Nc2ccccc2C(=O)O)c2nc(N3CCOCC3)cc(=O)n2c1 [AZD6482] + CCOc1nc(NC(=O)Cc2cc(OC)ccc2OC)cc(N)c1C#N
*A* 0.0312

---

- Tested on: SF539
- Assay text: Loewe synergy score (Combenefit); higher = more synergy; extreme values may be limits of the assay
- Condition: exposure time: 72 h
Lab note: compare Loewe synergy score against 0.9. Equal or greater, write true (1). Smaller, write false (0).

The examples below pair each entry with its known result.
[
  {
    "Compound": "Nc1ccn([C@@H]2O[C@H](CO)[C@@H](O)C2(F)F)c(=O)n1 [Gemcitabine] + C=CCc1cccc(/C=N/NC(=O)CN2CCN(Cc3ccccc3)CC2)c1O [PAC-1]",
    "Category": "false (0)"
  },
  {
    "Compound": "CCCCCCCCCCCC1=C(O)C(=O)C=C(O)C1=O [Embelin] + N#CC(c1ccnc(NCCc2cccnc2)n1)c1nc2ccccc2s1 [AS601245]",
    "Category": "false (0)"
  },
  {
    "Compound": "CCCCCCCCCCCC1=C(O)C(=O)C=C(O)C1=O [Embelin] + O=c1[nH]c2ccccc2n1C1CCN(Cc2ccc(-c3[nH]c4cc5ncnc5cc4nc3-c3ccccc3)cc2)CC1 [Akt inhibitor VIII]",
    "Category": "false (0)"
  },
  {
    "Compound": "Nc1ccn([C@@H]2O[C@H](CO)[C@@H](O)C2(F)F)c(=O)n1 [Gemcitabine] + Cc1cc([C@@H](C)Nc2ccccc2C(=O)O)c2nc(N3CCOCC3)cc(=O)n2c1 [AZD6482]",
    "Category": "true (1)"
  }
]

Now let's try a different one.
*Q* Hi, just wondering whether CCC(=O)N1CCN(c2ccc(-n3c(=O)ccc4cnc5ccc(-c6cnc7ccccc7c6)cc5c43)cc2C(F)(F)F)CC1 [Torin1] + N#CC(c1ccnc(NCCc2cccnc2)n1)c1nc2ccccc2s1 [AS601245] shows Loewe synergy score of 0.9 or higher.
*A* true (1)

---

- Test system: U87
- Assay text: Bliss synergy score (Combenefit); higher = more synergy; extreme values may be limits of the assay
- Condition: exposure time: 72 h
Reported endpoint: Bliss synergy score
# output: bare number, no unit

Example compounds with recorded Bliss synergy score:
[
  {
    "Compound": "Cc1cc([C@@H](C)Nc2ccccc2C(=O)O)c2nc(N3CCOCC3)cc(=O)n2c1 [AZD6482] + CCOc1nc(NC(=O)Cc2cc(OC)ccc2OC)cc(N)c1C#N [JNK inhibitor VIII]",
    "Obs value": 1
  },
  {
    "Compound": "CO[C@H]1C[C@@H]2CC[C@@H](C)[C@@](O)(O2)C(=O)C(=O)N2CCCC[C@H]2C(=O)O[C@H]([C@H](C)C[C@@H]2CC[C@@H](O)[C@H](OC)C2)CC(=O)[C@H](C)/C=C(\\C)[C@@H](O)[C@@H](OC)C(=O)[C@H](C)C[C@H](C)/C=C/C=C/C=C/1C [Rapamycin] + C=CCc1cccc(/C=N/NC(=O)CN2CCN(Cc3ccccc3)CC2)c1O [PAC-1]",
    "Obs value": 0
  }
]

*Q* Input Nc1ccn([C@@H]2O[C@H](CO)[C@@H](O)C2(F)F)c(=O)n1 [Gemcitabine] + CCOc1nc(NC(=O)Cc2cc(OC)ccc2OC)cc(N)c1C#N [JNK inhibitor VIII] , output reported Bliss synergy score.
*A* 5.17

*Q* Supply Bliss synergy score value. Item: CCCCCCCCCCCC1=C(O)C(=O)C=C(O)C1=O [Embelin] + O=c1[nH]c2ccccc2n1C1CCN(Cc2ccc(-c3[nH]c4cc5ncnc5cc4nc3-c3ccccc3)cc2)CC1 [Akt inhibitor VIII]
*A* 3.16

---

- Test system: SF539
- Assay text: HSA synergy score (Combenefit); higher = more synergy
- Condition: exposure time: 72 h
Each entry below lists one item and its recorded HSA synergy score value.

The examples below pair each entry with its known result.
[
  {
    "Molecule": "CC(=O)O[C@@]12CO[C@@H]1C[C@H](O)[C@@]1(C)C(=O)[C@H](O)C3=C(C)[C@@H](OC(=O)[C@H](O)[C@@H](NC(=O)OC(C)(C)C)c4ccccc4)C[C@@](O)([C@@H](OC(=O)c4ccccc4)[C@H]21)C3(C)C [Docetaxel] + O=c1[nH]c2ccccc2n1C1CCN(Cc2ccc(-c3[nH]c4cc5ncnc5cc4nc3-c3ccccc3)cc2)CC1 [Akt inhibitor VIII]",
    "HSA synergy score": 2.57
  },
  {
    "Molecule": "CC(=O)O[C@@]12CO[C@@H]1C[C@H](O)[C@@]1(C)C(=O)[C@H](O)C3=C(C)[C@@H](OC(=O)[C@H](O)[C@@H](NC(=O)OC(C)(C)C)c4ccccc4)C[C@@](O)([C@@H](OC(=O)c4ccccc4)[C@H]21)C3(C)C [Docetaxel] + CCC(=O)N1CCN(c2ccc(-n3c(=O)ccc4cnc5ccc(-c6cnc7ccccc7c6)cc5c43)cc2C(F)(F)F)CC1 [Torin1]",
    "HSA synergy score": 2.76
  },
  {
    "Molecule": "CO[C@H]1C[C@@H]2CC[C@@H](C)[C@@](O)(O2)C(=O)C(=O)N2CCCC[C@H]2C(=O)O[C@H]([C@H](C)C[C@@H]2CC[C@@H](O)[C@H](OC)C2)CC(=O)[C@H](C)/C=C(\\C)[C@@H](O)[C@@H](OC)C(=O)[C@H](C)C[C@H](C)/C=C/C=C/C=C/1C [Rapamycin] + CCOc1nc(NC(=O)Cc2cc(OC)ccc2OC)cc(N)c1C#N [JNK inhibitor VIII]",
    "HSA synergy score": 0.625
  },
  {
    "Molecule": "Nc1ccn([C@@H]2O[C@H](CO)[C@@H](O)C2(F)F)c(=O)n1 [Gemcitabine] + C=CCc1cccc(/C=N/NC(=O)CN2CCN(Cc3ccccc3)CC2)c1O [PAC-1]",
    "HSA synergy score": 3.14
  },
  {
    "Molecule": "Nc1ccn([C@@H]2O[C@H](CO)[C@@H](O)C2(F)F)c(=O)n1 [Gemcitabine] + CO[C@H]1C[C@@H]2CC[C@@H](C)[C@@](O)(O2)C(=O)C(=O)N2CCCC[C@H]2C(=O)O[C@H]([C@H](C)C[C@@H]2CC[C@@H](O)[C@H](OC)C2)CC(=O)[C@H](C)/C=C(\\C)[C@@H](O)[C@@H](OC)C(=O)[C@H](C)C[C@H](C)/C=C/C=C/C=C/1C [Rapamycin]",
    "HSA synergy score": 18.2
  }
]

*Q* Output measured HSA synergy score for this item: Cc1cc([C@@H](C)Nc2ccccc2C(=O)O)c2nc(N3CCOCC3)cc(=O)n2c1 [AZD6482] + CCOc1nc(NC(=O)Cc2cc(OC)ccc2OC)cc(N)c1C#N
*A* 7.49

*Q* Tell me its HSA synergy score given C#Cc1cccc(Nc2ncnc3cc(OCCOC)c(OCCOC)cc23)c1 [Erlotinib] + CCCCCCCCCCCC1=C(O)C(=O)C=C(O)C1=O [Embelin] as the entry.
*A* 8.08
